System: wheat (Triticum aestivum var. Lew)
Experiment: Postemergence herbicidal activity, wheat
Assay type: in vivo
Details: rate of application 0.3 Kg/Ha, rated after 12-17 days
Rule: Postemergence herbicidal activity (% control) WHT below 40% gives Y, anything at or above gives N.

Cn1c(C(F)(F)F)cc(=O)n(-c2c(F)cc(Cl)c3cc(CCC(=O)O)oc23)c1=O [Compound 262]    N
COC(C)(C)c1cc2c(Cl)ccc(-n3c(=O)cc(C(F)(F)F)n(C)c3=O)c2o1 [Compound 251]    N
CC(O)c1cc2c(Cl)cc(F)c(-n3c(=O)cc(C(F)(F)F)n(C)c3=O)c2o1 (stereo not shown) [Compound 240]    N
CC(=O)OCCc1cc2c(Cl)cc(F)c(-n3c(=O)cc(C(F)(F)F)n(C)c3=O)c2o1 [Compound 260]    N
Cn1c(C(F)(F)F)cc(=O)n(-c2c(F)cc(Cl)c3[nH]c(C(F)(F)Cl)nc23)c1=O [Compound 366]    Y
Cn1c(C(F)(F)F)cc(=O)n(-c2c(F)cc(Cl)c3[nH]c(C45CC6CC(CC(C6)C4)C5)nc23)c1=O [Compound 374]    Y
CCN(CC)Cc1cc2c(Cl)ccc(-n3c(=O)cc(C(F)(F)F)n(C)c3=O)c2o1 [Compound 257]    Y
CC(OC(C)(C)C)c1cc2c(Cl)cc(F)c(-n3c(=O)cc(C(F)(F)F)n(C)c3=O)c2o1 (stereo not shown) [Compound 244]    N
CC(=O)OC(C)(C)c1cc2c(Cl)cc(F)c(-n3c(=O)cc(C(F)(F)F)n(C)c3=O)c2o1 [Compound 253]    N
CC(=O)Nc1nc2c(-n3c(=O)cc(C(F)(F)F)n(C)c3=O)c(F)cc(Br)c2o1 [Compound 43]    Y
Cn1c(C(F)(F)F)cc(=O)n(-c2ccc(Cl)c3cc(CO)oc23)c1=O [Compound 238]    Y
CC(O)Cc1cc2c(Cl)cc(F)c(-n3c(=O)cc(C(F)(F)F)n(C)c3=O)c2o1 (stereo not shown) [Compound 243]    N
Cn1c(C(F)(F)F)cc(=O)n(-c2c(F)cc(Cl)c3cc(C(C)(C)NS(C)(=O)=O)oc23)c1=O [Compound 255]    N
CC(=O)OC(C)c1cc2c(Cl)cc(F)c(-n3c(=O)cc(C(F)(F)F)n(C)c3=O)c2o1 (stereo not shown) [Compound 246]    N
Cn1c(C(F)(F)F)cc(=O)n(-c2c(F)cc(Cl)c3cc(CCO)oc23)c1=O [Compound 239]    N
CCCC(C)c1cc2c(Cl)cc(F)c(-n3c(=O)cc(C(F)(F)F)n(C)c3=O)c2o1 (stereo not shown) [Compound 229]    N
Cn1c(C(F)(F)F)cc(=O)n(-c2c(F)cc(Cl)c3oc(N)nc23)c1=O [Compound 38]    Y
Cn1c(C(F)(F)F)cc(=O)n(-c2c(F)cc(Cl)c3cc(C(N)=O)oc23)c1=O [Compound 273]    N
CNC(=O)OCCc1cc2c(Cl)cc(F)c(-n3c(=O)cc(C(F)(F)F)n(C)c3=O)c2o1 [Compound 261]    N
Cc1nc2c(-n3c(=O)cc(C(F)(F)F)n(C)c3=O)c(F)cc(Br)c2o1 [Compound 16]    N
Cn1c(C(F)(F)F)cc(=O)n(-c2c(F)cc(Br)c3oc(COc4ccc(Cl)cc4)nc23)c1=O [Compound 102]    Y
CNC(=O)OC(C)c1cc2c(Cl)cc(F)c(-n3c(=O)cc(C(F)(F)F)n(C)c3=O)c2o1 (stereo not shown) [Compound 249]    N
Cn1c(C(F)(F)F)cc(=O)n(-c2c(F)cc(F)c3cc(C(C)(C)C)oc23)c1=O [Compound 228]    N
CCOC(=O)CCc1nc2c(-n3c(=O)cc(C(F)(F)F)n(C)c3=O)c(F)cc(Cl)c2[nH]1 [Compound 372]    N
Cn1c(C(F)(F)F)cc(=O)n(-c2c(F)cc(Cl)c3oc(NS(C)(=O)=O)nc23)c1=O [Compound 42]    Y
Cn1c(C(F)(F)F)cc(=O)n(-c2c(F)cc(Cl)c3nc(CCCc4ccccc4)[nH]c23)c1=O [Compound 380]    Y
